Target: Platelet-derived growth factor receptor (PDGFr) (Rattus norvegicus, UniProt P20786+Q05030)
Experiment: Inhibition of PDGF-dependent rat glioma cell proliferation
Type: functional
Attribute measured: IC50 (µM)

Sample answers from the record:
[[record]]
smiles_structure = "CCN(CC)CCCCNc1cc2nc(NC(=O)NC(C)(C)C)c(-c3cc(OC)cc(OC)c3)cc2cn1"
target_entity = "Platelet-derived growth factor receptor (PDGFr) (Rattus norvegicus, UniProt P20786+Q05030)"
attribute_measured = "IC50"
value = 2.1

[[record]]
smiles_structure = "COc1cc(OC)cc(-c2cc3cnc(NCCCN4CCN(C)CC4)cc3nc2NC(=O)NC(C)(C)C)c1"
target_entity = "Platelet-derived growth factor receptor (PDGFr) (Rattus norvegicus, UniProt P20786+Q05030)"
attribute_measured = "IC50"
value = 1.8

[[record]]
smiles_structure = "COc1cc(OC)cc(-c2cc3cnc(NCCCN4CCN(C)CC4)cc3nc2N)c1"
target_entity = "Platelet-derived growth factor receptor (PDGFr) (Rattus norvegicus, UniProt P20786+Q05030)"
attribute_measured = "IC50"
value = 9.1

[[record]]
smiles_structure = "CCN(CC)CCCCCNc1cc2nc(NC(=O)NC(C)(C)C)c(-c3cc(OC)cc(OC)c3)cc2cn1"
target_entity = "Platelet-derived growth factor receptor (PDGFr) (Rattus norvegicus, UniProt P20786+Q05030)"
attribute_measured = "IC50"
value = 1.5

[[record]]
smiles_structure = "COc1cc(OC)cc(-c2cc3cnc(NCCCCCO)cc3nc2NC(=O)NC(C)(C)C)c1"
target_entity = "Platelet-derived growth factor receptor (PDGFr) (Rattus norvegicus, UniProt P20786+Q05030)"
attribute_measured = "IC50"
value = 3.4


(A) CCN(CC)CCCNc1cc2nc(NC(=O)NC(C)(C)C)c(-c3cc(OC)cc(OC)c3)cc2cn1
(B) COc1cc(OC)cc(-c2cc3cnc(NCCCO)cc3nc2NC(=O)NC(C)(C)C)c1
Q: Two entries are listed, A and B . Which one carries the higher IC50? Let me know the label of the one you choose.
Result: A

* * *

Biological target: Platelet-derived growth factor receptor (PDGFr) (Rattus norvegicus, UniProt P20786+Q05030)
Assay: Inhibition of PDGF-dependent rat glioma cell proliferation
Assay type: functional
Attribute measured: IC50 (µM)

[[record]]
smiles_structure = "COc1cc(OC)cc(-c2cc3cnc(NCCCCO)cc3nc2NC(=O)NC(C)(C)C)c1"
attribute_measured = "IC50"
value = 1.2


(a) COc1cc(OC)cc(-c2cc3cnc(NCCCCN4CCN(C)CC4)cc3nc2NC(=O)NC(C)(C)C)c1
(b) CCNC(=O)Nc1nc2cc(NCCCCN(CC)CC)ncc2cc1-c1cc(OC)cc(OC)c1
Q: Lab log: flag the item ( a or b ) with the smaller IC50 figure. Let me know the label of the one you choose.
Result: a
(a: 1.3 µM, b: 3.5 µM)

* * *

Form: system (Proto-oncogene tyrosine-protein kinase Src (Gallus gallus, UniProt P00523)), quantity (pIC50), values below.
pIC50: −log10 of the molar value.

Sample answers from the record:
[[record]]
compound = "COc1cc(OC)cc(C2Cc3cnc(N(CCCCOCc4ccccc4)C(C)=O)cc3N=C2NC(=O)NC(C)(C)C)c1 (stereo not drawn)"
value = "< 4.30"

[[record]]
compound = "CCNC(=O)Nc1nc2cc(NCCCCN(CC)CC)ncc2cc1-c1cc(OC)cc(OC)c1"
value = 5.15


// moving on: another record for pIC50
Q: Quick one: give measured pIC50 for COc1cc(OC)cc(C2Cc3cnc(N(CCCO)C(C)=O)cc3N=C2NC(=O)NC(C)(C)C)c1 (stereo not drawn)
Result: < 4.30

* * *

Form: system (Proto-oncogene tyrosine-protein kinase Src (Gallus gallus, UniProt P00523)), quantity (IC50), values below.
Attribute measured: IC50 (µM)

[[record]]
smiles_structure = "CN1CCN(CCCNc2cc3nc(N)c(-c4c(Cl)cccc4Cl)cc3cn2)CC1"
unit_descriptor = "µM"
value = 0.069

[[record]]
smiles_structure = "CCN(CC)CCCNc1cc2nc(NC(=O)NC(C)(C)C)c(-c3cc(OC)cc(OC)c3)cc2cn1"
unit_descriptor = "µM"
value = 16

[[record]]
smiles_structure = "CCN(CC)CCCCNc1ncc2cc(-c3cc(OC)cc(OC)c3)c(NC(=O)NC(C)(C)C)nc2n1"
unit_descriptor = "µM"
value = 20


(A) CN1CCN(CCCNc2cc3nc(NC(=O)NC(C)(C)C)c(-c4c(Cl)cccc4Cl)cc3cn2)CC1
(B) CCN(CC)CCCCNc1cc2nc(NC(=O)NC(C)(C)C)c(-c3cc(OC)cc(OC)c3)cc2cn1
Q: Lab log: flag the item ( A or B ) with the smaller IC50 figure. Let me know the label of the one you choose.
Result: A
(A: 0.019 µM, B: 4.6 µM)

(A) CCN(CC)CCCCNc1cc2nc(NC(=O)NC(C)(C)C)c(-c3c(Cl)cccc3Cl)cc2cn1
(B) COc1cc(OC)cc(-c2cc3cnc(NCCCN4CCN(C)CC4)nc3nc2NC(=O)NC(C)(C)C)c1
(C) CCN(CC)CCCCNc1cc2nc(NC(=O)NC(C)(C)C)c(-c3ccccc3)cc2cn1
(D) COc1cc(OC)cc(-c2cc3cnc(NCCCN4CCN(C)CC4)cc3nc2NC(=O)NC(C)(C)C)c1
Q: Returns the items ordered by IC50, from maximum to minimum. Provide your answer as the labels ordered per the instruction.
Result: B, D, C, A
(B: 26 µM, D: 9.1 µM, C: 0.11 µM, A: 0.014 µM)

* * *

Molecular target: Platelet-derived growth factor receptor beta (Mus musculus)
Sequence (P05622 whole entry): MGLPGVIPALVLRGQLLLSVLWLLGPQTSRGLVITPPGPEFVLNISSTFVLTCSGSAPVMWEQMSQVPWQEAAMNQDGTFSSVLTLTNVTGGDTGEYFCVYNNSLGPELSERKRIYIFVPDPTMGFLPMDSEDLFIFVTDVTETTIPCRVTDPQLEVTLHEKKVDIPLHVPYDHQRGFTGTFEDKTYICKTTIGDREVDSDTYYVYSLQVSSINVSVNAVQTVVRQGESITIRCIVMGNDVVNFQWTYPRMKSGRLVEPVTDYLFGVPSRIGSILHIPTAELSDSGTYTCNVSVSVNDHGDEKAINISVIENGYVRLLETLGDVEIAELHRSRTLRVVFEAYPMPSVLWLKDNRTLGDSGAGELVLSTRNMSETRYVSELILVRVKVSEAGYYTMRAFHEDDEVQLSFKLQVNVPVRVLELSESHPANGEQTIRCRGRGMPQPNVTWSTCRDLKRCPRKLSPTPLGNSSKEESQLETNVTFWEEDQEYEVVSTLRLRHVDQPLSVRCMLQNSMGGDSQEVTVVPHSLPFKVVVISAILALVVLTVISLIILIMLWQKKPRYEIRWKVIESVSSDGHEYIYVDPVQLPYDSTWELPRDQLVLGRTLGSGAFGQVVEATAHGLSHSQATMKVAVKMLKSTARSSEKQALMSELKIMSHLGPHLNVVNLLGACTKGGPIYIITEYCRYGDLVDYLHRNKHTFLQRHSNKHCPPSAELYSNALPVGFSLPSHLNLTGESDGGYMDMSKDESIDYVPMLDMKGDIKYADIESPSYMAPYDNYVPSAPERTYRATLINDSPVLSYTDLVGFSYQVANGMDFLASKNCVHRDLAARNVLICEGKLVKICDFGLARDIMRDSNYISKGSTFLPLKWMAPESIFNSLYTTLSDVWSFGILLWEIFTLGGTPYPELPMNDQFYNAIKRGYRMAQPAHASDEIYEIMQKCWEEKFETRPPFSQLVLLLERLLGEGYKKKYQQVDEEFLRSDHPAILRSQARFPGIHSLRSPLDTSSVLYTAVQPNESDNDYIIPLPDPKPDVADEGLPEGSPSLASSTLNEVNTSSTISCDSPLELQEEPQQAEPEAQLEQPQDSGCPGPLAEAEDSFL
Attribute measured: IC50 (µM)

Sample answers from the record:
[[record]]
smiles_structure = "CCN(CC)CCCCNc1ncc2cc(-c3cc(OC)cc(OC)c3)c(NC(=O)NC(C)(C)C)nc2n1"
target_entity = "Platelet-derived growth factor receptor beta (Mus musculus)"
unit_descriptor = "µM"
value = 14

[[record]]
smiles_structure = "CCN(CC)CCCCNc1cc2nc(N)c(-c3ccccc3)cc2cn1"
target_entity = "Platelet-derived growth factor receptor beta (Mus musculus)"
unit_descriptor = "µM"
value = 12

[[record]]
smiles_structure = "CCN(CC)CCCNc1cc2nc(NC(=O)NC(C)(C)C)c(-c3cc(OC)cc(OC)c3)cc2cn1"
target_entity = "Platelet-derived growth factor receptor beta (Mus musculus)"
unit_descriptor = "µM"
value = 18

[[record]]
smiles_structure = "CN1CCN(CCCNc2cc3nc(N)c(-c4ccccc4)cc3cn2)CC1"
target_entity = "Platelet-derived growth factor receptor beta (Mus musculus)"
unit_descriptor = "µM"
value = 8.8

[[record]]
smiles_structure = "COc1cc(OC)cc(-c2cc3cnc(NCCCN4CCN(C)CC4)nc3nc2NC(=O)NC(C)(C)C)c1"
target_entity = "Platelet-derived growth factor receptor beta (Mus musculus)"
unit_descriptor = "µM"
value = 31


(P) CN1CCN(CCCNc2cc3nc(NC(=O)NC(C)(C)C)c(-c4c(Cl)cccc4Cl)cc3cn2)CC1
(Q) CCNC(=O)Nc1nc2nc(NCCCCN(CC)CC)ncc2cc1-c1cc(OC)cc(OC)c1
Q: Two entries are listed, P and Q . Which one carries the higher IC50? Let me know the label of the one you choose.
Result: Q

* * *

Form: system (Platelet-derived growth factor receptor beta (Mus musculus, UniProt P05622)), quantity (IC50), values below.
Attribute measured: IC50 (µM)

Sample answers from the record:
[[record]]
smiles_structure = "CCNC(=O)Nc1nc2nc(NCCCN3CCN(C)CC3)ncc2cc1-c1cc(OC)cc(OC)c1"
target_entity = "Platelet-derived growth factor receptor beta (Mus musculus, UniProt P05622)"
value = 45

[[record]]
smiles_structure = "COc1cc(OC)cc(-c2cc3cnc(NCCCCCN4CCN(C)CC4)cc3nc2NC(=O)NC(C)(C)C)c1"
target_entity = "Platelet-derived growth factor receptor beta (Mus musculus, UniProt P05622)"
value = 27

[[record]]
smiles_structure = "CN1CCN(CCCNc2cc3nc(N)c(-c4c(Cl)cccc4Cl)cc3cn2)CC1"
target_entity = "Platelet-derived growth factor receptor beta (Mus musculus, UniProt P05622)"
value = 4.7

[[record]]
smiles_structure = "CCN(CC)CCCCNc1cc2nc(NC(=O)NC(C)(C)C)c(-c3ccccc3)cc2cn1"
target_entity = "Platelet-derived growth factor receptor beta (Mus musculus, UniProt P05622)"
value = 0.45


(I) CN1CCN(CCCNc2cc3nc(NC(=O)NC(C)(C)C)c(-c4ccccc4)cc3cn2)CC1
(II) CCN(CC)CCCCNc1cc2nc(N)c(-c3c(Cl)cccc3Cl)cc2cn1
Q: Lab log: flag the item ( I or II ) with the smaller IC50 figure. Let me know the label of the one you choose.
Result: I
(I: 1.2 µM, II: 4 µM)
